Molecular target: hGLP-1R (Homo sapiens, UniProt P43220)
Sequence (P43220 24-463): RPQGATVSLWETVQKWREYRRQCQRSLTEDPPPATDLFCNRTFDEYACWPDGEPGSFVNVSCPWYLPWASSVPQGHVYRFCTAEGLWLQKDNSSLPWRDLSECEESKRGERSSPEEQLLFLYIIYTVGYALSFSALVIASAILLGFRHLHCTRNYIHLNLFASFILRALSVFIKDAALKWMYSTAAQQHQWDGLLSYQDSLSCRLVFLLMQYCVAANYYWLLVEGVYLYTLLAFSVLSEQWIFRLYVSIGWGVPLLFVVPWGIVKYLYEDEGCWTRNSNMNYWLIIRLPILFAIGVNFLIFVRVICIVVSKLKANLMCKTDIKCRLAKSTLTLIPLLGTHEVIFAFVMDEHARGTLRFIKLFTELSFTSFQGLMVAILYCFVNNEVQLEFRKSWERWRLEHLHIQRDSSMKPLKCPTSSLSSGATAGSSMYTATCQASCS
Assay: cell-based or functional assay
Starred links: 1 amine or outer side, 2 acyl side, 3 side chain; linkers in the order of their positions; H or OH if unused. Non-standard residues stand in square brackets, D forms with d. Groups on a side chain read outwards from the residue. No end group written: not given here. *: point of attachment. C20 diacid = O=C(O)CCCCCCCCCCCCCCCCCCC(=O)*; γGlu = O=C(O)[C@H](CCC(=O)[*:2])N[*:1]; αMeL = CC(C)C[C@](C)(N)C(=O)O; AEEA = NCCOCCOCC(=O)O; Aib = CC(C)(N)C(=O)O

binder: YXQGTFTSDXSXXLDXKAQXAFIEYLIAGGPSSGEPPPSGTE (Aib, 4Pal, Orn, αMeL, Me4Pal; (γGlu)2-C18 diacid on Lys; amide; synthetic construct; SITE 2: note = 2-Aminoisobutyric Acid; SITE 10: note = 3-(4-Pyridyl)-L-alanine; SITE 12: note = L-ornithine; SITE 13: note = alpha-methyl-leucine; SITE 16: note = L-ornithine; SITE 17: note = Lysine is chemically modified through conjugation of the epsilon-amino group of the Lys) [Example 984]
Relative cAMP EC50 [nM]: 2.07
//
binder: YXQGTFTSDFSRXLDKKAQXAFIEYLIEGGESSGAPPPSGS (non-natural residues; lysine acylated with AEEA linker C18 diacid; C-amide; synthetic construct; SITE 2: note = 2-Aminoisobutyric Acid; SITE 13: note = alpha-methyl-leucine; SITE 17: note = Lysine is chemically modified through conjugation of the epsilon-amino group of the Lysine side chain with (2-[2-(2-Amino-ethoxy)-ethoxy]-acetyl)-(gamma-Glu)-CO-(CH2) 16-CO2H; SITE 20: n) [Example 220]
Relative cAMP EC50 [nM]: 1.01
//
binder: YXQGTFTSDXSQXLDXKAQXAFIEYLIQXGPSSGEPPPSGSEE (non-natural residues; lipidated Lys AEEA-γGlu-C18 diacid; C-term amide; synthetic construct; SITE 2: note = 2-Aminoisobutyric Acid; SITE 10: note = 3-(4-Pyridyl)-L-alanine; SITE 13: note = alpha-methyl-leucine; SITE 16: note = L-ornithine; SITE 17: note = Lysine is chemically modified through conjugation of the epsilon-amino group of the Lysine side chain with (2-[2-(2-) [Example 1096]
Relative cAMP EC50 [nM]: 1.47
//
binder: YXQGTFTSDFSXXLDKKAQXAFIEYLLEAGPSSGAPPPSGS (Aib, Orn, αMeL, D-Ala, acylated Lys, C-terminal amide; synthetic construct; SITE 2: note = 2-Aminoisobutyric Acid; SITE 12: note = L-ornithine; SITE 13: note = alpha-methyl-leucine; SITE 17: note = Lysine is chemically modified through conjugation of the epsilon-amino group of the Lysine side chain with (2-[2-(2-Amino-ethoxy)-ethoxy]-acetyl)-(gamma-Glu)) [Example 209]
Relative cAMP EC50 [nM]: 1.78
//
binder: YXQGTFTSDXSQXLDXKAQXQFIEXLIEXGPSSGAPPPSGSEE (Aib, 4Pal, αMeL, Orn, Me4Pal, αMeY; acylated lysine; amide; synthetic construct; SITE 2: note = 2-Aminoisobutyric Acid; SITE 10: note = 3-(4-Pyridyl)-L-alanine; SITE 13: note = alpha-methyl-leucine; SITE 16: note = L-ornithine; SITE 17: note = Lysine is chemically modified through conjugation of the epsilon-amino group of the Lysine side chain with (2-[2-(2-) [Example 1109]
Relative cAMP EC50 [nM]: 2.3
//
binder: YXQGTXTSDXXIXLDXKAAXEFIEXLIEGGPSSGAPPPSGX (C-terminal γGlu; C-terminal amide; synthetic construct; SITE 2: note = 2-Aminoisobutyric Acid; SITE 6: note = alpha-methyl-2-fluoro-L-phenylalanine; SITE 10: note = 3-(4-Pyridyl)-L-alanine; SITE 11: note = alpha-methyl-L-serine; SITE 13: note = alpha-methyl-leucine; SITE 16: note = L-ornithine; SITE 17: note = Lysine is chemically mo) [Example 722]
Relative cAMP EC50 [nM]: 0.252
//
binder: YXQGTFTSDFSXXLDKKAQXAFIEYLLAGGPSSGAPPPSGT (synthetic construct; SITE 2: note = 2-Aminoisobutyric Acid; SITE 12: note = L-ornithine; SITE 13: note = alpha-methyl-leucine; SITE 17: note = Lysine is chemically modified through conjugation of the epsilon-amino group of the Lysine side chain with (2-[2-(2-Amino-ethoxy)-ethoxy]-acetyl)-(gamma-Glu)) [Example 87]
Relative cAMP EC50 [nM]: 2.75
//
binder: Y[Aib]QGTFTSDYSI[αMeL]LDKK([AEEA-γGlu-C20 diacid])AQRAFIEYLLEGGPSSGEPPPSG-NH2 [Example 313]
Relative cAMP EC50 [nM]: 0.304
//
binder: YXQGTFTSDFSRXLDKKAQXAFIEYLLEXGPSSGAPPPGGS (Aib, αMeL; acylated Lys; C-terminal amide; synthetic construct; SITE 2: note = 2-Aminoisobutyric Acid; SITE 13: note = alpha-methyl-leucine; SITE 17: note = Lysine is chemically modified through conjugation of the epsilon-amino group of the Lysine side chain with (2-[2-(2-Amino-ethoxy)-ethoxy]-acetyl)-(gamma-Glu)-CO-(CH2) 18-CO2H; SITE 20: n) [Example 42]
Relative cAMP EC50 [nM]: 2.17
//
binder: Y[Aib]QGTFTSDYSK[αMeL]LDKKAQQAFVQWLIE[dA]GPSSGEPPPSEG-NH2 (not fully specified (residue 17)) [Example 342]
Relative cAMP EC50 [nM]: 0.419
//
binder: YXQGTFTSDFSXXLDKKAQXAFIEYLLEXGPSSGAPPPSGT (non-natural residues, acylated Lys (AEEA-γGlu-C18 diacid), C-terminal amide; synthetic construct; SITE 2: note = 2-Aminoisobutyric Acid; SITE 12: note = L-ornithine; SITE 13: note = alpha-methyl-leucine; SITE 17: note = Lysine is chemically modified through conjugation of the epsilon-amino group of the Lysine side chain with (2-[2-(2-Amino-ethoxy)-ethoxy]-acetyl)-(gamma-Glu)) [Example 200]
Relative cAMP EC50 [nM]: 3.19
//
binder: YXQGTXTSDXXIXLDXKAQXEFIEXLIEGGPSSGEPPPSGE (non-natural residues; Lys acylated C18 diacid via AEEA-γGlu2; C-term amide; synthetic construct; SITE 2: note = 2-Aminoisobutyric Acid; SITE 6: note = alpha-methyl-2-fluoro-L-phenylalanine; SITE 10: note = 3-(4-Pyridyl)-L-alanine; SITE 11: note = alpha-methyl-L-serine; SITE 13: note = alpha-methyl-leucine; SITE 16: note = L-ornithine; SITE 17: note = Lysine is chemically mo) [Example 1177]
Relative cAMP EC50 [nM]: 0.681

Measured values drawn from patent US20240270821A1 for this set.
